B1: SNAP91 (parent)
chain: FAAPSPATTASPAKVDSSGVIDLF

Variants of: B1
Assay: protein stability index of a GFP-peptide fusion (GPS, HEK-293T) (PSI 1-6); higher = more stable;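 note: lentivirally expressed fusions sorted by FACS into six bins by GFP to DsRed ratio, PSI derived from sequencing read proportions per bin multiplied by bin number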
Settings: c terminus: a fixed tail appended
Measured protein stability index of individual entries
Just the number, please.

Solved entries (count: 3):
P6I 1.84
A13T 2.33
F24Y 2.88

Tell me the measured protein stability index of A10D , please.
2.57

Tell me the measured protein stability index of V20N , please.
2.77

Tell me the measured protein stability index of G19I , please.
1.41
